# credit: ChEMBL document CHEMBL4613264

Recorded measurements of pIC50, one per entry
assayed target: 5-hydroxytryptamine receptor 2A (Homo sapiens, UniProt P28223)
Sequence (P28223 whole entry): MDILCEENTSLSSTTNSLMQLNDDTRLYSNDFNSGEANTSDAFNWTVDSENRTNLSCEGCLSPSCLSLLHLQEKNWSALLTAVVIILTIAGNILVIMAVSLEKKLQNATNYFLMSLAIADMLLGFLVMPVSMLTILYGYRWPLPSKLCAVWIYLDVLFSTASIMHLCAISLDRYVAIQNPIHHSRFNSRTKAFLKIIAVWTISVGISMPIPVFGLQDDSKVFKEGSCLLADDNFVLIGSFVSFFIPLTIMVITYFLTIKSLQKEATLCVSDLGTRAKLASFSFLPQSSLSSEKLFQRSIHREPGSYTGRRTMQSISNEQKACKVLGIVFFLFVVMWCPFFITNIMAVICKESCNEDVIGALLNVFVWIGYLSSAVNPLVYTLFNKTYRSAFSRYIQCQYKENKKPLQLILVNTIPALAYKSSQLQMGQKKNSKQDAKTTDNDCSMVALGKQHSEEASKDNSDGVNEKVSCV
experiment summary: Antagonist activity at 5HT2A receptor (unknown origin) expressed in HEK293 cells assessed as inhibition of serotonin hydrochloride-induced calcium flux preincubated for 1 hr followed by serotonin hydrochloride addition by calcium 6 dye based FLIPR assay
pIC50: −log10 of the molar value.

molecule: CC(C)COc1ccc(CNC(=O)N(Cc2ccc(F)cc2)C2CCN(S(C)(=O)=O)CC2)cc1
pIC50: 5.70
//
molecule: CC(C)COc1ccc(CNC(=O)N(Cc2ccc(F)cc2)C2CCN(C(=O)C[C@H](N)C(=O)O)CC2)cc1
pIC50: 7.46
//
molecule: CC(C)COc1ccc(CNC(=O)N(Cc2ccc(F)cc2)C2CCN(C(=O)CC[C@H](N)C(=O)O)CC2)cc1
pIC50: 8.08
//
molecule: CC(C)COc1ccc(CNC(=O)N(Cc2ccc(F)cc2)C2CCN(C(=O)CCC(=O)O)CC2)cc1
pIC50: 6.50
//
molecule: CN1CCC(N(Cc2ccc(F)cc2)C(=O)NCc2ccc(OCC(O)CN3CCC(c4noc5cc(F)ccc45)CC3)cc2)CC1 (centres undefined)
pIC50: 9.41
//
molecule: CN1CCC(N(Cc2ccc(F)cc2)C(=O)NCc2ccc(OCC(O)CN3CCN(c4nsc5ccccc45)CC3)cc2)CC1 (centres undefined)
pIC50: 9.06
//
molecule: CC(C)COc1ccc(CNC(=O)N(Cc2ccc(F)cc2)C2CCNCC2)cc1
pIC50: 9.22
//
molecule: CC(C)COc1ccc(CNC(=O)N(Cc2ccc(F)cc2)C2CCN(C(=S)NC(C)C)CC2)cc1
pIC50: 5.95
//
molecule: CN1CCC(N(Cc2ccc(F)cc2)C(=O)NCc2ccc(OCC(O)CN3CCN(C(=O)OC(C)(C)C)CC3)cc2)CC1 (centres undefined)
pIC50: 8.71
